- System tested: 3',5'-cyclic-AMP phosphodiesterase 4D (Homo sapiens)
- Sequence (Q08499 whole entry): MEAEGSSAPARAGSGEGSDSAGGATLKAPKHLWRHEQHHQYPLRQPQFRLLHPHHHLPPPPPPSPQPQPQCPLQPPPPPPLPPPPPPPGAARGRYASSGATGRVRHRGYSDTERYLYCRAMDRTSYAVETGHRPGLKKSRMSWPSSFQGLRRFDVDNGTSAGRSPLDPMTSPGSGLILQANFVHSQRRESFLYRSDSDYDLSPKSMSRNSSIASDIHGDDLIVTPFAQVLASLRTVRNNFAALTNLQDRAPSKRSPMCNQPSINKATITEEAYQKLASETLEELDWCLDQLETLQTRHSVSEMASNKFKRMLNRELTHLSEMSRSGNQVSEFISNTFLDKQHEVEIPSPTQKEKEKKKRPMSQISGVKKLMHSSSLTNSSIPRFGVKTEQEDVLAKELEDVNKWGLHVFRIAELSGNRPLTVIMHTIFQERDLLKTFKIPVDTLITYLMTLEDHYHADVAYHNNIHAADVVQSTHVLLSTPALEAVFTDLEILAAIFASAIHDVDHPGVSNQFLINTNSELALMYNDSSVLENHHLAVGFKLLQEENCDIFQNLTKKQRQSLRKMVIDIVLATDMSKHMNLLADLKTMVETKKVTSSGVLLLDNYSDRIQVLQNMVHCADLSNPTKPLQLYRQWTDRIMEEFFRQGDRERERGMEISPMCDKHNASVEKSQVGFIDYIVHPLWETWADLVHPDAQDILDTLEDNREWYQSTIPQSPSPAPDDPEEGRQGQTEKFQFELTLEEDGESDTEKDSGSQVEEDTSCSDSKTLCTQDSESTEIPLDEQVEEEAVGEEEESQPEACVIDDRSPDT
- Procedure details: Inhibition of full-length human PDE4D2 assessed as cAMP hydrolysis preincubated for 20 mins followed by cAMP addition measured after 30 mins
Definition: the class of an entry is the range in bucket 1: < 900 nM; bucket 2: ≥ 900 nM and < 2000 nM; bucket 3: ≥ 2000 nM that contains its IC50.

1. COc1ccc(-c2nc3c(c(Nc4ccc(CC(=O)O)c(F)c4)n2)S(=O)(=O)CCC3)cc1Cl ... bucket 2
2. N#Cc1ccc(-c2nc3c(c(Nc4ccc(CC(=O)O)cc4)n2)SCCC3)cc1 ... bucket 1
3. CN(C)c1ccc(-c2nc3c(c(Nc4ccc(CC(=O)O)cc4)n2)S(=O)(=O)CCC3)cc1 ... bucket 3
4. CC(=O)c1ccc(-c2nc3c(c(Nc4ccc(CC(=O)O)cc4)n2)S(=O)(=O)CCC3)cc1 ... bucket 1
5. COc1ccc(-c2nc3c(c(Nc4ccc(CC(=O)O)cc4)n2)S(=O)(=O)CCC3)cn1 ... bucket 3
6. COc1ccc(-c2nc3c(c(Nc4ccc(CC(=O)O)c(F)c4)n2)S(=O)(=O)CCC3)c(F)c1F ... bucket 2
7. O=C(O)Cc1ccc(Nc2nc(-c3cc4ccccc4s3)nc3c2S(=O)(=O)CCC3)cc1F ... bucket 1
8. O=C(O)Cc1ccc(Nc2nc(-c3cc4ccccc4o3)nc3c2S(=O)(=O)CCC3)cc1 ... bucket 2
9. COc1ccc(-c2nc3c(c(Nc4ccc(CC(=O)O)cc4)n2)S(=O)(=O)CCC3)cc1 ... bucket 2
